- tested.target: human CD33 N20K (human, UniProt P20138 18-364)
- Sequence (P20138 18-364 N20K limits assumed): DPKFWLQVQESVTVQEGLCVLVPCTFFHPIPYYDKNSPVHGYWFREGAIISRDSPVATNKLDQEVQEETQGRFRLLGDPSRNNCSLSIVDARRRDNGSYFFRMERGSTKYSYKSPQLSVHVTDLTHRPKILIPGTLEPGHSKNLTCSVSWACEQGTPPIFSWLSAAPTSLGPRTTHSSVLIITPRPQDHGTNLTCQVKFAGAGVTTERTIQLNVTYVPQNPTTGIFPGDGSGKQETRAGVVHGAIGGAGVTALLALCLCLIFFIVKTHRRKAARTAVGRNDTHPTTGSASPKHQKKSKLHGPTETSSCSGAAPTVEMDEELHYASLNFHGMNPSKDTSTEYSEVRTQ
- protocol.description: flow cytometry, mutant on cells, IgG
assay.metric: Mean % WT Binding (% WT binding)
Use % WT binding as the unit, but write only the number.

>>> value_reported("Refmab #2 (antibody, human IgG1, V domains shown, Tested in IgG format; human IgG1 Fc silent (PG-LALA)) VH: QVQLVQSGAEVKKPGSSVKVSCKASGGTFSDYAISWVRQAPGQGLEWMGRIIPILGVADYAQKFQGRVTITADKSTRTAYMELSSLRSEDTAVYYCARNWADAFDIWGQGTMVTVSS VL: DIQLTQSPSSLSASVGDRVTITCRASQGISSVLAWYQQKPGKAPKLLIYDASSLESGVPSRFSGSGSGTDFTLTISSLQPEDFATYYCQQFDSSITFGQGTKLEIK")
103
>>> value_reported("Refmab #1 (antibody, human IgG1, V domains shown, Tested in IgG format; human IgG1 (Absolute Antibody hP67.6, Cat. No. Ab00283-10.0); also called hP67.6) VH: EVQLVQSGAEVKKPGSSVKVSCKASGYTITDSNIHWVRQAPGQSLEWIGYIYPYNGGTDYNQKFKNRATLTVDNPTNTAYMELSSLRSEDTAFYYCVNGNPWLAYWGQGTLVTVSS VL: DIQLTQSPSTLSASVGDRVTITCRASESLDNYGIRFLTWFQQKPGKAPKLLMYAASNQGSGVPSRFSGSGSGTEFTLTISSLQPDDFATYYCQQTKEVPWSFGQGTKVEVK")
0.4

[Q] What value of Mean % WT Binding has been reported for the following binder? Refmab #3 (antibody, human IgG1, V domains shown, Tested in IgG format; human IgG1 Fc silent (PG-LALA)) VH: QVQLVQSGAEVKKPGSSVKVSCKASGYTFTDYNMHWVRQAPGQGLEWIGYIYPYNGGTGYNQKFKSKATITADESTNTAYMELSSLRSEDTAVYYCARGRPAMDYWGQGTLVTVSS VL: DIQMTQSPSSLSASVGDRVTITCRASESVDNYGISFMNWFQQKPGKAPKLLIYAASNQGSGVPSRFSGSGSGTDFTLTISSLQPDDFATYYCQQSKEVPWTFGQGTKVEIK
[A] 0.8

[Q] What value of Mean % WT Binding has been reported for the following binder? Refmab #4 (antibody, human IgG1, V domains shown, Tested in IgG format; human IgG1 Fc silent (PG-LALA)) VH: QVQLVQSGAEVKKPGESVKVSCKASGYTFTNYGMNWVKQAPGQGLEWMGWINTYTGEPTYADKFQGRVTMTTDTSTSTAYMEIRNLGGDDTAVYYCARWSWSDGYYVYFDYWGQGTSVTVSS VL: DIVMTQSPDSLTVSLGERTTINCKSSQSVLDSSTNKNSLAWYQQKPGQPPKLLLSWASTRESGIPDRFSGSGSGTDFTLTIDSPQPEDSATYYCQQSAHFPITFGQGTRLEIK
[A] 102
